All figures here come from the NIST ThermoML archive (doi:10.1016/j.jct.2016.09.022).

- Test Parameters: 313.15 K; 60100 kPa; Liquid; Frequency=1.5 MHz; Single path-length method
The reader will find reported speed of sound values listed item by item below.
Give just the numeric value; m/s need not be written.

Field: example entries. Status: answers known.
[[record]]
record_smiles = "CCCCCCC"
measured_number = 1424.7

[[record]]
record_smiles = "O"
measured_number = 1630.4

[[record]]
record_smiles = "Cc1ccccc1"
measured_number = 1506.4

[[record]]
record_smiles = "CCO"
measured_number = 1399.1

[[record]]
record_smiles = "CCCO"
measured_number = 1450.6

[[record]]
record_smiles = "CO"
measured_number = 1349.4

[[record]]
record_smiles = "CCCCCCCC"
measured_number = 1450.7


Exercise: Fill blank: measured speed of sound of the compound CCCCCC is ____.
Solution: 1390.3

----------
- Test Parameters: 293.15 K; 50100 kPa; Liquid; Frequency=1.5 MHz; Single path-length method
± gives the expanded uncertainty stated by the source.
Reported values of speed of sound for individual entries
Please report the result as a number followed by the unit.

[[record]]
record_smiles = "CCO"
result = "1410.7 ± 2.9 m/s"

[[record]]
record_smiles = "CCCO"
result = "1461.7 ± 3 m/s"

[[record]]
record_smiles = "Cc1ccccc1"
result = "1537.9 ± 3.2 m/s"

[[record]]
record_smiles = "O"
result = "1565.3 ± 3.2 m/s"

[[record]]
record_smiles = "CCCCCC"
result = "1405.9 ± 3.1 m/s"

[[record]]
record_smiles = "CCCCCCC"
result = "1439 ± 3.2 m/s"

[[record]]
record_smiles = "CCCCCCCC"
result = "1465.6 ± 3.1 m/s"


Pending molecule:
Exercise: So what does the record say about speed of sound for CO ?
Solution: 1357 ± 2.8 m/s

----------
- Test Parameters: 313.15 K; 30100 kPa; Liquid; Frequency=1.5 MHz; Single path-length method
Outcome Measure: speed of sound (m/s)
Output spec: scalar in m/s, unitless text.

[[record]]
compound = "CCO [ethanol]"
measurement_unit = "m/s"
measured_number = 1266.5

[[record]]
compound = "CCCCCCCC [octane]"
measurement_unit = "m/s"
measured_number = 1303.8

[[record]]
compound = "CCCO [propan-1-ol]"
measurement_unit = "m/s"
measured_number = 1320.6

[[record]]
compound = "CO [methanol]"
measurement_unit = "m/s"
measured_number = 1221.5

[[record]]
compound = "O [water]"
measurement_unit = "m/s"
measured_number = 1580.3


Exercise: Sample CCCCCCC [heptane] — what was its speed of sound?
Solution: 1272.1

Exercise: Note, next up: Cc1ccccc1 [toluene]
Solution: 1387

Exercise: Request: CCCCCC [hexane]
Solution: 1231.8

----------
- Test Parameters: 323.15 K; 30100 kPa; Liquid; Frequency=1.5 MHz; Single path-length method
Below, each of the compounds is paired with its reported speed of sound value.
Unit m/s implied. Number only.

[[record]]
compound = "O [water]"
outcome_measure = "speed of sound"
measured_number = 1595

[[record]]
compound = "CCCO [propan-1-ol]"
outcome_measure = "speed of sound"
measured_number = 1293


Exercise: Fill in: speed of sound of CCO [ethanol] is ___
Solution: 1238.8

Exercise: Repeat with CCCCCCC [heptane]
Solution: 1239

Exercise: Now this one: CCCCCC [hexane]
Solution: 1197.6

Exercise: // query: Cc1ccccc1 [toluene]
Solution: 1352.7

Exercise: # repeat for CO [methanol]
Solution: 1195.3

Exercise: # iterate: CCCCCCCC [octane]
Solution: 1271.6

----------
- Test Parameters: 303.15 K; 80100 kPa; Liquid; Frequency=1.5 MHz; Single path-length method
Outcome Measure: speed of sound (m/s)
Entry rule: numbers only, all in m/s.

[[record]]
record_smiles = "CCCCCCCC"
outcome_measure = "speed of sound"
measured_number = 1561.4

[[record]]
record_smiles = "CCCCCCC"
outcome_measure = "speed of sound"
measured_number = 1538.3

[[record]]
record_smiles = "CCCO"
outcome_measure = "speed of sound"
measured_number = 1549.5

[[record]]
record_smiles = "CCO"
outcome_measure = "speed of sound"
measured_number = 1498.1

[[record]]
record_smiles = "O"
outcome_measure = "speed of sound"
measured_number = 1642.6


Exercise: Returns the measured speed of sound for the input molecule. Input: CCCCCC
Solution: 1508.3

Exercise: Then this molecule: Cc1ccccc1
Solution: 1605.2

Exercise: Note, next up: CO
Solution: 1444.6

----------
- Test Parameters: 333.15 K; 90100 kPa; Liquid; Frequency=1.5 MHz; Single path-length method
Each record here notes measured speed of sound.
Give just the number in m/s; leave the unit off.

[[record]]
molecule = "CO [methanol]"
measured_number = 1415.9


Exercise: Quick one: speed of sound for CCCCCC [hexane] ?
Solution: 1467.5

Exercise: Repeat with CCCCCCCC [octane]
Solution: 1519.8

Exercise: Note, next up: CCCCCCC [heptane]
Solution: 1496.7

Exercise: Entry to check: O [water]
Solution: 1705.9

Exercise: Then this molecule: Cc1ccccc1 [toluene]
Solution: 1546.5

Exercise: Next molecule: CCCO [propan-1-ol]
Solution: 1515.2

Exercise: Please give the result for CCO [ethanol] too.
Solution: 1466.1

----------
- Test Parameters: 293.15 K; 60100 kPa; Liquid; Frequency=1.5 MHz; Single path-length method
Outcome Measure: speed of sound (m/s)
// return numeric value only (unit: m/s, not printed)

Exercise: Any idea what speed of sound was measured for Cc1ccccc1 ?
Solution: 1572.4

Exercise: Also check CCCCCCCC
Solution: 1508.4

Exercise: Please answer likewise for CCCO
Solution: 1500.3

Exercise: Field entry: O
Solution: 1582.2

Exercise: Try this compound next: CO
Solution: 1394.9

Exercise: # repeat for CCO
Solution: 1449.9

Exercise: Follow-up entry: CCCCCCC
Solution: 1483.3

Exercise: Also CCCCCC , if possible.
Solution: 1452.3

----------
Consider the following compounds and their measured speed of sound readings.
- Test Parameters: 343.15 K; 40100 kPa; Liquid; Frequency=1.5 MHz; Single path-length method
Numbers after ± are expanded uncertainties.
Provide the measurement as a number trailed by its unit.

Consider the worked cases shown below.
[[record]]
record_smiles = "CCCCCC"
result = "1194.6 ± 2.9 m/s"

[[record]]
record_smiles = "CO"
result = "1194.9 ± 2.6 m/s"

[[record]]
record_smiles = "CCCCCCC"
result = "1234.9 ± 2.9 m/s"

[[record]]
record_smiles = "CCCCCCCC"
result = "1265.9 ± 2.8 m/s"

[[record]]
record_smiles = "O"
result = "1628.6 ± 3.3 m/s"


Exercise: Value lookup for speed of sound; key = Cc1ccccc1
Solution: 1329.5 ± 2.8 m/s

Exercise: # repeat for CCO
Solution: 1237.5 ± 2.7 m/s

Exercise: Same again, this time with CCCO
Solution: 1289.2 ± 2.8 m/s

----------
- Test Parameters: 283.15 K; 80100 kPa; Liquid; Frequency=1.5 MHz; Single path-length method
Outcome Measure: speed of sound (m/s)
Hi! Could you send only the number? It should be in m/s, unit omitted.

Field: example entries. Status: answers known.
[[record]]
compound = "O [water]"
measured_number = 1582.7

[[record]]
compound = "CCCCCCCC [octane]"
measured_number = 1619

[[record]]
compound = "CCO [ethanol]"
measured_number = 1547.2

[[record]]
compound = "CCCO [propan-1-ol]"
measured_number = 1597.2

[[record]]
compound = "CCCCCC [hexane]"
measured_number = 1566.5


Exercise: For the compound CCCCCCC [heptane] , what speed of sound is on record?
Solution: 1593.8

Exercise: Request: Cc1ccccc1 [toluene]
Solution: 1670.9

Exercise: Then this compound: CO [methanol]
Solution: 1489.1

----------
The reader will find reported speed of sound values listed item by item below.
- Test Parameters: 313.15 K; 100 kPa; Liquid; Frequency=1.5 MHz; Single path-length method
Lab book: enter the figure in m/s, no units written.

Recorded results for 5 compounds are shown here.
[[record]]
record_smiles = "CCCCCCCC"
outcome_measure = "speed of sound"
measurement_unit = "m/s"
measured_number = 1112.1

[[record]]
record_smiles = "O"
outcome_measure = "speed of sound"
measurement_unit = "m/s"
measured_number = 1528.9

[[record]]
record_smiles = "CCCCCC"
outcome_measure = "speed of sound"
measurement_unit = "m/s"
measured_number = 1011.6

[[record]]
record_smiles = "CCCO"
outcome_measure = "speed of sound"
measurement_unit = "m/s"
measured_number = 1155.3

[[record]]
record_smiles = "CO"
outcome_measure = "speed of sound"
measurement_unit = "m/s"
measured_number = 1054.5


Exercise: Recorded speed of sound of Cc1ccccc1 , please.
Solution: 1241.9

Exercise: Same again, this time with CCO
Solution: 1094.7

Exercise: Now consider CCCCCCC .
Solution: 1068.8
